assay_remarks: Clast in male C57BL/6 mouse at 50 mg/kg, ip at 48 hrs by LC-MS/MS analysis
condition_notes: in vivo
value_type: concentration at 48 h (nM)

>>> print(df.to_string())
                           substance_smiles             value_type  experimental_value
0  N=c1c2c(-c3ccccc3)c(-c3ccccc3)n(Cc3ccccc3)c2ncn1[C@H]1CC[C@H](O)CC1  concentration at 48 h                1320

###

target_or_test_system: Alpha-1D adrenergic receptor (Homo sapiens)
Sequence (P25100 whole entry): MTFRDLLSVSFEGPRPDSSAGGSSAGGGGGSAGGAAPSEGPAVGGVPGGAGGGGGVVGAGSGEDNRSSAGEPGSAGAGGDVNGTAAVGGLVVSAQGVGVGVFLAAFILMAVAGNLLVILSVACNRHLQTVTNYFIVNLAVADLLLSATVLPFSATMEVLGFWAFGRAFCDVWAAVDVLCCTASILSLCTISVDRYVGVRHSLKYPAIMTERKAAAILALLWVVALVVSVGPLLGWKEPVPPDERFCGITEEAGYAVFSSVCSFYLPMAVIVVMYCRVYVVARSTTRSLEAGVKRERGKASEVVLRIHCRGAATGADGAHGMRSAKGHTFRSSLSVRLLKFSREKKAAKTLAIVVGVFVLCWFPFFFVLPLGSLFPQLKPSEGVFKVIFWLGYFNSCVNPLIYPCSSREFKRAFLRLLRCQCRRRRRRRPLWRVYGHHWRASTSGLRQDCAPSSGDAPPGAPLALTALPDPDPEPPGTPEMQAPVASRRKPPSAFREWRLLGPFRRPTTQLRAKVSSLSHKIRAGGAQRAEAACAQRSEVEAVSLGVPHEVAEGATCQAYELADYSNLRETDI
pKi: −log10 of the molar value.
value_type: pKi

>>> print(df.to_string())
                           substance_smiles                     target_or_test_system  value_type  experimental_value
0  N=c1c2c(-c3ccccc3)c(-c3ccccc3)n(Cc3ccccc3)c2ncn1[C@H]1CC[C@H](O)CC1  Alpha-1D adrenergic receptor (Homo sapiens)         pKi                5.49
